Cited source for all entries: ChEMBL document CHEMBL1128387

# Target or test system: Sigma non-opioid intracellular receptor 1 (Rattus norvegicus, UniProt Q9R0C9)
# Sequence (Q9R0C9 whole entry): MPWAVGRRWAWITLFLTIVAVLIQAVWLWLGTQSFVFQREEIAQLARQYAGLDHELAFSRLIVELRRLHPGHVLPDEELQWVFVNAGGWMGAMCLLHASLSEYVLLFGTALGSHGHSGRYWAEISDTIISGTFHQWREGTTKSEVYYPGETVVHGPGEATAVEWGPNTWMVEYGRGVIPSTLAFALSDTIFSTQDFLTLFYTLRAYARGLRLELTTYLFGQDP
# Protocol details: Compound was evaluated for the binding affinity towards Sigma receptor type 1 using radioligand ([3H]-(+)- Pentazocine) binding assay.
Observable: pIC50
Remember, pIC50 is on a log scale: it is -log10 of the molar concentration.

Given the entry CCCN1CCC2(CC1)OCc1ccccc12 , report its measured pIC50. 8.33

And what about the molecule Fc1ccc(-n2cc(CCCCN3CCC4(CC3)OCCc3ccccc34)c3ccccc32)cc1 ? 7.28

Here is the next molecule: c1ccc2c(c1)COC21CCN(CCCCC2CCCCC2)CC1 8.82

Field entry: c1ccc(CCCN2CCC3(CC2)OCc2ccccc23)cc1 9.25

How about Fc1ccc(-n2cc(CCCCN3CCC4(CC3)Oc3ccccc3O4)c3ccccc32)cc1 ? 6.37

Next entry: Fc1ccc(-n2cc(CCCCN3CCC4(CC3)OCc3cccc(F)c34)c3ccccc32)cc1 6.82

Then Fc1ccc(-n2cc(CCCCN3CCC4(CC3)COc3ccccc3C4)c3ccccc32)cc1 ? 6.70

And what about the molecule c1ccc(CCN2CCC3(CC2)OCc2ccccc23)cc1 ? 8.66

Again, but for c1ccc2c(c1)COC21CCNCC1 6.20

Likewise for Fc1ccc(-n2cc(CCCCN3CCC4(CC3)OCc3c(F)cccc34)c3ccccc32)cc1 ? 6.54

Next record, please: c1ccc2c(c1)COC21CCN(CCCOC2CCCCC2)CC1 9.40

###

# Target or test system: Sigma intracellular receptor 2 (Rattus norvegicus, UniProt Q5U3Y7)
# Sequence (Q5U3Y7 whole entry, looked up): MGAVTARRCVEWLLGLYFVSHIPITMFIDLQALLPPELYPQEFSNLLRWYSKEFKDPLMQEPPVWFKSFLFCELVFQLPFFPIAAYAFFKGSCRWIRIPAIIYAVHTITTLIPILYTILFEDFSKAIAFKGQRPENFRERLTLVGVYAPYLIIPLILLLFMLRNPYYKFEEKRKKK
# Protocol details: Binding affinity towards Sigma receptor type 2 in whole rat brain homogenates except cerebellum using radioligand ([3H]DTG) binding assay.
Observable: log10 IC50 (log10 of the value in nM)
Field: value | Transform: log10 | Quantity: IC50 | Unit: nM

# input compound: c1ccc2c(c1)COC21CCNCC1 ; wanted: its log10 IC50 4.04

Follow-up entry: CCN1CCC2(CC1)OCc1ccccc12 2.43

What do you have for c1ccc(CN2CCC3(CCCc4ccccc43)CC2)cc1 ? 1.08

Similarly, CCCN1CCC2(CC1)OCc1ccccc12 ? 1.36

Cc1ccc2c(c1)COC21CCN(CCCCc2cn(-c3ccc(F)cc3)c3ccccc23)CC1 ? 0.36

Same read-out for CC(C)N1CCC2(CC1)OCc1ccccc12 ? 1.69

###

# Target or test system: Sigma non-opioid intracellular receptor 1 (Rattus norvegicus)
# Protocol details: Compound was evaluated for the binding affinity towards Sigma receptor type 1 using radioligand ([3H]-(+)- Pentazocine) binding assay.
pIC50: −log10 of the molar value.
Record condition met whenever pIC50 is at 8 or higher; record condition not met when lower.

State whether the measured pIC50 reaches 8, counting equality as reaching it, for Fc1ccc(-n2cc(CCCCN3CCC4(CC3)OCc3c(C(F)(F)F)cccc34)c3ccccc32)cc1 condition not met

Try this compound too: c1ccc(CCCCCN2CCC3(CC2)OCc2ccccc23)cc1 condition met

Would you mind doing Fc1ccc(-n2cc(CCCCN3CCC4(CC3)COCc3ccccc34)c3ccccc32)cc1 as well? condition met

Likewise for Fc1ccc(-n2cc(CCCCN3CCC4(CC3)SCc3ccccc34)c3ccccc32)cc1 ? condition not met

Entry to check: Fc1ccc(-n2cc(CCCCN3CCC4(CC3)Cc3ccccc3O4)c3ccccc32)cc1 condition not met

Follow-up entry: CC(C)N1CCC2(CC1)OCc1ccccc12 condition not met
